measured_target: Yap3 (UniProt P38749)
Sequence: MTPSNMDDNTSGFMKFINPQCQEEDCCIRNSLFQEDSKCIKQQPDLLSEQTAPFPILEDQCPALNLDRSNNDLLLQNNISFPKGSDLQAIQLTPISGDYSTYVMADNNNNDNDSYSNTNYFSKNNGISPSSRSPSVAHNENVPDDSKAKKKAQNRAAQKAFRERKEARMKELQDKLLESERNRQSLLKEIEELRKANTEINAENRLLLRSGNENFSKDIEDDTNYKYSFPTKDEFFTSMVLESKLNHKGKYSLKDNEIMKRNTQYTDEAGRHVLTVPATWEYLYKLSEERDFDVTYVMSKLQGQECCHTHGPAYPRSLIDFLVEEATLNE
assay_notes: PBM E-score (8-mer binding enrichment) (E-score (-0.5 to 0.5)); higher = stronger / more preferred TF binding
assay_context: protein concentration: 100 nM; construct: GST-full length
Over roughly 33,000 sequences, “E-score (-0.5 to 0.5)” has its median near -0.0034; the highest 2% begin near 0.25. The entries come from a sample that favours the highest values as a whole.
Use 0.1 as the dividing line for PBM E-score, with the line itself on the fulfilled side and lower values as not fulfilled.

• AATTATAG = fulfilled
• GTTGCATA = not fulfilled
• CTCCTACC = not fulfilled
• AAAAGTAG = fulfilled
• GATTTCCC = fulfilled
• CGACGTAA = fulfilled
• CTATTCTC = fulfilled
• TAAAATGA = fulfilled
• GTTTGAGA = not fulfilled
• CGCAGGTA = not fulfilled
• ATCCAACC = not fulfilled
• CGGGGTAC = not fulfilled
• TATTTCAA = fulfilled
• AACTTATT = fulfilled
• ACGGCAAT = fulfilled
• CATTATTC = fulfilled
• CCTATTAA = not fulfilled
• GATTATAA = fulfilled
• GAATGTAA = fulfilled
• CAATAGAC = fulfilled
• GTTTACCA = fulfilled
• CAAAATTA = fulfilled
• ATCCGATG = not fulfilled
• GATTTCAA = not fulfilled
• TAGGTCAA = not fulfilled
• ACAATTTA = fulfilled
• ATATTCTA = fulfilled
• ATGCGCAT = fulfilled
• TATACTGA = fulfilled
• TGACGTCA = fulfilled
• CAAATTTA = fulfilled
• GCACGTAA = not fulfilled
• ACCGTCGG = not fulfilled
• ATGATTAG = fulfilled
• CGATCGAC = fulfilled
• AAAGGCAA = fulfilled
• AGTAGATA = fulfilled
• AGTAGTGG = not fulfilled
• CATACGTA = fulfilled
• AGATGGAA = not fulfilled
• AATTATAC = fulfilled
• ACACATGT = not fulfilled
• CGCACATA = not fulfilled
• GAGGGATC = not fulfilled
• GTTGGCTA = fulfilled
• TAAAATTA = fulfilled
• TAATGTAA = fulfilled
• GTATTCAC = fulfilled
• AGACGTCA = not fulfilled
• GCGCGTAA = fulfilled
• TATCTGCA = not fulfilled
• CGTATCGC = not fulfilled
• GAGTGGAA = not fulfilled
• CCGCTGTA = fulfilled
• AGTAGATC = not fulfilled
• ATGATTAA = fulfilled
• AATGCTCT = not fulfilled
• TAATGACA = fulfilled
• AGAATGCC = not fulfilled
• AATACGTA = fulfilled
• ATATTCTC = fulfilled
• GGCTCTGA = not fulfilled
• GGCCCAAA = not fulfilled
• CAAGGGAC = not fulfilled
• AATTATTA = fulfilled
• TAATTGCA = fulfilled
• CTTGAAAC = fulfilled
• GATAGATA = not fulfilled
• TCGATGCA = not fulfilled
• CTCCCTCA = not fulfilled
• AAGCACTT = not fulfilled
• CTGATTAA = fulfilled
• CATTTTCC = fulfilled
• CTCACGAA = not fulfilled
• AATTATAA = fulfilled
• CCCATTAA = not fulfilled
• CGCCATCC = not fulfilled
• CATTTCCC = fulfilled
• ACTATTAA = fulfilled
• ATTATTAA = fulfilled
• TAATGGAA = fulfilled
• GACACCGA = not fulfilled
• TCCATTAA = not fulfilled
• ACCTGCTG = not fulfilled
• TCGCGTAA = fulfilled
• ACACGTAA = fulfilled
• AGTTATTA = fulfilled
• ACCTCTCC = not fulfilled
• ATCGAGTC = not fulfilled
